- Test system: L1210 leukemia ip in BDF1 mice, survival T/C
- Measurement Protocol: NCI In Vivo Anticancer Drug Screen. Data for tumor model L1210 Leukemia (intraperitoneal) in B6D2F1 (BDF1) mice
- Measurement Parameters: endpoint: mean survival time; dose: 100.0 mg/kg/injection; schedule: Q01DX009 (ip); vehicle: saline with Tween-80; higher = longer survival
Inconclusive results and toxic doses are left out. Square brackets hold non-standard residues; d marks the D form. Peptide text beside a SMILES is read from it. * marks the point of attachment. ξ: configuration not given here. Boc = CC(C)(C)OC(=O)*; ξP = O=C(O)C1CCCN1
Property Label: T/C

Below, each entry is followed by its recorded T/C result.
Compound | T/C
CCOCc1c(COc2ccc(Br)cc2)n(CC)c2ccccc12 | 93 % of control
COc1ccccc1NC(=O)Nc1cc(C)cc(C)n1 | 101 % of control
O=C(NO)c1cc(Br)cc(Br)c1O | 100 % of control
Cc1ccc(C#CP(C#Cc2ccc(C)cc2)C#Cc2ccc(C)cc2)cc1 | 88 % of control
Cc1ccc(S(=O)(=O)Nc2ccccc2)c(C(O)(c2ccccc2)c2ccccc2)c1 | 91 % of control
CN(C)CC1CCCCC1OC(=O)c1ccccc1 (stereo not given) | 94 % of control

Requested read-out: T/C. Entry: COC(=O)CNC(=O)C1CCCN1C(=O)OC(C)(C)C (stereo not given) (Boc-[ξP]-Gly-OMe)
100 % of control

Find the recorded T/C belonging to O=C(Nc1ccc(C(=O)O)cc1)Nc1cccc(C(F)(F)F)c1 and report it.
93 % of control

Look at this compound and give its reported T/C. CCOC(=O)CCC(C)(C#N)c1ccccc1 (stereo not given)
104 % of control

Numbers sourced from PubChem BioAssay AID248.
